Taken from the supplement of paper PMC3334620.

A collection of sequences and their measured PBM E-score
Biological target: Yer184c (UniProt P39961)
Sequence: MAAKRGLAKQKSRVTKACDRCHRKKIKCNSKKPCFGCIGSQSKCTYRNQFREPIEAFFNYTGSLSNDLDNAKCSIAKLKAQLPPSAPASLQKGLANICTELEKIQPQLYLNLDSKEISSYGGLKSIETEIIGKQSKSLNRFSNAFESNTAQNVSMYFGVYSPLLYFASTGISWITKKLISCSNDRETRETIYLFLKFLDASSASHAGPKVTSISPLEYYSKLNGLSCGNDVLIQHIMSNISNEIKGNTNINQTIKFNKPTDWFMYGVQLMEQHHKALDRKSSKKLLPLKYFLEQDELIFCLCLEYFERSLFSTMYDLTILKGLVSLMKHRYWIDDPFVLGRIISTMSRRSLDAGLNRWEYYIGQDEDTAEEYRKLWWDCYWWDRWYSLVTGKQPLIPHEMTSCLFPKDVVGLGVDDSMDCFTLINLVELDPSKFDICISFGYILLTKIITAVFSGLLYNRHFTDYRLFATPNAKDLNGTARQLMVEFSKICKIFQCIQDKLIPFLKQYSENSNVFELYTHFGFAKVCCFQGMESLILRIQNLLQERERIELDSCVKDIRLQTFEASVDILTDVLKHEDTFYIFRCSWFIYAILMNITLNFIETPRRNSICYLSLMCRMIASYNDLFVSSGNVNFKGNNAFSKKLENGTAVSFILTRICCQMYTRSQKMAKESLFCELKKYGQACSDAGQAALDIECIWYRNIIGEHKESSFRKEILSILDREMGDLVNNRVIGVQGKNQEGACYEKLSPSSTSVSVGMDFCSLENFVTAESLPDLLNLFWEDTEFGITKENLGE
Assay: PBM E-score (8-mer binding enrichment) (E-score (-0.5 to 0.5)); higher = stronger / more preferred TF binding
Details: protein concentration: 100 nM; construct: GST-full length
The full ranking holds about 33,000 sequences; the median of “E-score (-0.5 to 0.5)” is about -0.016, and the highest 2% start at about 0.3. The sample as a whole holds a higher share of the highest values than the screen did.
MEASUREMENT_TYPE: PBM E-score

TCGGAAAA : 0.382
ATTCGGTG : 0.155
TACCGGGA : 0.207
GCTGCACA : -0.159
GGGAGTAA : 0.109
CAGCCGGA : 0.392
ACCGGACC : 0.29
AAGGCTAT : -0.0663
AAAGCGTT : -0.0919
GCGGAAAC : 0.0908
GGTACTAA : -0.00623
AACCTCTT : 0.178
TACCGGTA : 0.23
GCTACTTA : -0.201
GACTTCCC : -0.0878
GCCGGAAA : 0.426
TGACCGAA : 0.228
GCAGGAAA : -0.0351
AGATTCCT : -0.215
ATTGTGAG : 0.09
CCCGGAAC : 0.298
CGAATGCA : 0.0594
GCTCGGCA : 0.288
GAGGTCGA : -0.158
AGTGCACT : 0.067
AGAGTAAC : 0.0419
GCTGGAAA : 0.133
CACCCCCA : -0.206
ACCGGAAG : 0.279
GCCGGAGC : 0.238
CCTGGTAC : -0.0559
ACCGGAAC : 0.398
ACCTAGTC : -0.244
ATTGAATA : 0.24
TAATCATA : 0.157
ATGCTCTC : -0.0198
CACCAACA : -0.23
ACCCCGCA : -0.0654
CGACCGAA : 0.273
CGCCCAAA : 0.0692
CATCGGCA : 0.211
AGCCCAAG : -0.228
CAGCCGCA : -0.134
CTACCCAC : -0.304
CACCGGAC : 0.268
CTTCGGCC : 0.272
TTGGAAAA : 0.134
